study-system: NPC1-like intracellular cholesterol transporter 1 (Homo sapiens, UniProt Q9UHC9)
Sequence (Q9UHC9 whole entry): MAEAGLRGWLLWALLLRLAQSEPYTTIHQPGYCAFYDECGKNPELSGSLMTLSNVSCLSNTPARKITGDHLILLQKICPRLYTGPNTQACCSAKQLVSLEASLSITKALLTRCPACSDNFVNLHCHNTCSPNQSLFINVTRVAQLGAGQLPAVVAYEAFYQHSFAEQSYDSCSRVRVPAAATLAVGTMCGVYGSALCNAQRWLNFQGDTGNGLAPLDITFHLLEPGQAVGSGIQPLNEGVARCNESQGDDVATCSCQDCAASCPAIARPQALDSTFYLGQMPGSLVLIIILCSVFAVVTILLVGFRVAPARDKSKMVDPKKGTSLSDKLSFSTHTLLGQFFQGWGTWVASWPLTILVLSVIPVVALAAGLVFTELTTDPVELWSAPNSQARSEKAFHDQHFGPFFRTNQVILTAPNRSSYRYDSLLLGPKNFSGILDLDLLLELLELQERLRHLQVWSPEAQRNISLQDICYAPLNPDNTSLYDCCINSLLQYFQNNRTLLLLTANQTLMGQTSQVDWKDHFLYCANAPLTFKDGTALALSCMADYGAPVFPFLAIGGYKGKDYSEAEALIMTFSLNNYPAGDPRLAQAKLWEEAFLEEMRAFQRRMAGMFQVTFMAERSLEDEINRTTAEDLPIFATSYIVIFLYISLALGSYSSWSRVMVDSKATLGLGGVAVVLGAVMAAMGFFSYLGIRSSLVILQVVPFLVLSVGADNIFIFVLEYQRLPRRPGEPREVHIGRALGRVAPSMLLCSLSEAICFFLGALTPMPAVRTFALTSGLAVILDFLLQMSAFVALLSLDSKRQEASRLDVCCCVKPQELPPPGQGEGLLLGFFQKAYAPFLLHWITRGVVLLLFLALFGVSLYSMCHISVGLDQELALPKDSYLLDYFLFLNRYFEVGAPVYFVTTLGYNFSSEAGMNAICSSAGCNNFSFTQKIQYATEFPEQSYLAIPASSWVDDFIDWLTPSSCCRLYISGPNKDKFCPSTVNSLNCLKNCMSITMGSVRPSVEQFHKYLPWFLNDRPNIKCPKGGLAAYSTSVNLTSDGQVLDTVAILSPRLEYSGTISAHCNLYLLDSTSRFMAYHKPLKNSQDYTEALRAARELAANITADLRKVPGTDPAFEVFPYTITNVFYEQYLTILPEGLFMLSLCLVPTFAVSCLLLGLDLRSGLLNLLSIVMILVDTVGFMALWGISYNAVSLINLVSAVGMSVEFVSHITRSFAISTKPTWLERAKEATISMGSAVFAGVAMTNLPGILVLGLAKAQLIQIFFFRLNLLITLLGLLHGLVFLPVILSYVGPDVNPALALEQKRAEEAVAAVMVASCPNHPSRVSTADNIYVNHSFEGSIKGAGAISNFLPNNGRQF
test-description: Displacement of [35S](2S,3S,4S,5R,6S)-6-(4-((2S,3R)-3-((S)-3-(4-fluorophenyl)-3-hydroxypropyl)-1-(4-(3-(methylsulfonamido)prop-1-ynyl)phenyl)-4-oxoazetidin-2-yl)phenoxy)-3,4,5-trihydroxytetrahydro-2H-pyran-2-carboxylic acid from human NCP1L1 expressed in HEK 293
Kindly state pIC50 for each of the entries shown.
Numbers only, as −log10 of the molar value.

{"compound": "CC(C)(C)c1ccc(C(=O)N2CCC3(CC2)C(=O)N(CC(=O)N2CCCC(CO)C2)CN3c2ccccc2)cc1 (configuration not stated)", "observed-value": 5.09}
{"compound": "CC(C)(C)c1ccc(C(=O)N2CCC3(CC2)C(=O)N(CC(=O)NCCCNS(C)(=O)=O)CN3c2ccccc2)cc1", "observed-value": 4.98}
{"compound": "CC(C)(C)OC(=O)NCCNC(=O)CN1CN(c2ccccc2)C2(CCN(C(=O)c3ccc(C4CCCCC4)cc3)CC2)C1=O", "observed-value": 4.86}
{"compound": "CC(C)(C)c1ccc(C(=O)N2CCC3(CC2)C(=O)N(CC(=O)N2CCCCC2CO)CN3c2ccccc2)cc1 (configuration not stated)", "observed-value": 4.93}
{"compound": "CC(C)(C)OC(=O)NCNC(=O)CN1CN(c2ccccc2)C2(CCN(C(=O)c3ccc(C(C)(C)C)cc3)CC2)C1=O", "observed-value": 4.23}
{"compound": "CCn1nc(Cc2ccccc2)cc1C1CCN(C(=O)CN2CN(c3ccccc3)C3(CCN(C(=O)c4ccc(C(C)(C)C)cc4)CC3)C2=O)CC1", "observed-value": 5.19}

For each of the compounds below, note its pIC50.
1. CC(C)(C)OC(=O)NC1CCCN(C(=O)CN2CN(c3ccccc3)C3(CCN(C(=O)c4ccc(C(C)(C)C)cc4)CC3)C2=O)C1 (configuration not stated)
2. CC(C)(C)c1ccc(C(=O)N2CCC3(CC2)C(=O)N(CC(=O)N2CCC(CCO)CC2)CN3c2ccccc2)cc1
3. COC(=O)CCNC(=O)CN1CN(c2ccccc2)C2(CCN(C(=O)c3ccc(C4CCCCC4)cc3)CC2)C1=O
4. CC(C)(C)c1ccc(C(=O)N2CCC3(CC2)C(=O)N(CC(=O)NCCCCNS(C)(=O)=O)CN3c2ccccc2)cc1
5. NCCNC(=O)CN1CN(c2ccccc2)C2(CCN(C(=O)c3ccc(C4CCCCC4)cc3)CC2)C1=O
6. CC(C)(C)OC(=O)NCCCCCNC(=O)CN1CN(c2ccccc2)C2(CCN(C(=O)c3ccc(C(C)(C)C)cc3)CC2)C1=O
7. CCN(CC)C(=O)C1CCCN(C(=O)CN2CN(c3ccccc3)C3(CCN(C(=O)c4ccc(C(C)(C)C)cc4)CC3)C2=O)C1 (configuration not stated)
8. CC(C)(C)OC(=O)NC1CCN(C(=O)CN2CN(c3ccccc3)C3(CCN(C(=O)c4ccc(C(C)(C)C)cc4)CC3)C2=O)CC1

[5.38, 5.59, 5.35, 4.99, 4.58, 5.51, 5.06, 5.08]
